Molecular target: human FPR2 (Homo sapiens (Human), UniProt P25090)
Sequence (P25090 whole entry): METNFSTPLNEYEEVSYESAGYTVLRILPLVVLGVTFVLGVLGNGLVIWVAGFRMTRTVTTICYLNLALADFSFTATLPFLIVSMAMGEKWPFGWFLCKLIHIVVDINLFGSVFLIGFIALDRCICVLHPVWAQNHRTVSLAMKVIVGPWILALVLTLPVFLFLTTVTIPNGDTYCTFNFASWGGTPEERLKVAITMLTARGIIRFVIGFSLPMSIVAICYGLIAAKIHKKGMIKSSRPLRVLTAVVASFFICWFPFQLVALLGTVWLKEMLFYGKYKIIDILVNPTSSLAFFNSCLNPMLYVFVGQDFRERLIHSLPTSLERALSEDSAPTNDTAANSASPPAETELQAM
Assay: FPR2 cyclic adenosine monophosphate (cAMP) assay
Conditions: CHO cells overexpressing human FPR2; forskolin 5 μM, IBMX 200 μM; inhibition of cAMP production, HTRF; read-out: hFPR2 cAMP2 EC50
pEC50: −log10 of the molar value.
property_name: pEC50

P. CC1C[C@@H](NC(=O)Nc2ccc(Cl)cc2F)C(=O)N1c1ccc(-c2cccnc2P(C)(C)=O)c(F)c1F (stereo partly drawn) [Example 121]
Q. CC(C)c1cc(-c2ccccc2S(C)(=O)=O)ccc1N1CC[C@@H](NC(=O)Nc2ccc(Cl)cc2F)C1=O [Example 40]
R. CC(C)c1cc(-c2ccccc2NS(C)(=O)=O)ccc1N1CC[C@@H](NC(=O)Nc2ccc(Cl)cc2F)C1=O [Example 27]
Output the listed items in decreasing order of pEC50. List labels; respect the requested ordering.
P, R, Q
